- system-tested: SARS-CoV-2 spike protein receptor binding domain (RBD) (SARS-CoV-2, UniProt P0DTC2 319-541)
Hi there, I'd appreciate the recorded Kd for every entry that follows.
One number for each entry, in nM.

IMPI-024 (antibody, V domains shown) VH: EVQLVQSGAEVKKPGESLKISCKGSGYSFTSYWIGWVRQMPGKGLEWMGIIYPGDSDTRYSPSFQGQVTISADKSISTAYLQWSSLKASDTAMYYCVRSYNWNYFDYWGQGTLVTVSS VL: AIQLTQSPSSLSASVGDRVTITCRASQGISSGLAWYQQKAGKAPKLLIYDVSSLESGVPSRFSGSGSGTDFTLTISSLQPEDFATYYCQQFLSYPWTFGQGTKVEIK	1.16
IMPI-047 (antibody, V domains shown) VH: EVQLVESGGGLIQPGGSLRLSCAASGFTVSSNYMNWVRQAPGKGLEWVSVIYSGGSTYYADSVKGRFTISRDNSKNTLYLQMNSLRTEDTAVYYCARDLVAYGMDVWGQGTTVTVSS VL: DIQLTQSPSFLSASVGDRVTITCWASQGISSYLAWYQQKPGKAPKVLIYAASTLQSGVPSRFSGSGSGTEFTLTISSLQPEDFATYYCQLLNSNPLTFGGGTKVEIK	6.65

Now for the binder whose Kd we want.
Problem: Please give the measured Kd for this binder: IMPI-027 (antibody, V domains shown) VH: QVQLQESGPGLVKPSQTLSLTCTVSGGSISSYGYYWNWIRQHPGKGLEWIGYIYYSGSTYYNPSLKSRVTISVDTSKNQLSLRLNSVSAADTAVYYCARDFGGNSNYFDYWGQGTLVTVSS VL: AIQLTQSPSSLSASVGDRVTITCRTSQGISSALAWYQQKPGKAPKLLIYDASSLESGVPSRFSGSGSGTDFTLTISSLQPEDFATYYCQQFNSYPLTFGGGTKVEIK
Solution: 6.31
